Measured values drawn from paper PMC11328607 for this set.

- measurementTarget: MMP-9 (Homo sapiens, UniProt P14780)
- Sequence (P14780 94-707): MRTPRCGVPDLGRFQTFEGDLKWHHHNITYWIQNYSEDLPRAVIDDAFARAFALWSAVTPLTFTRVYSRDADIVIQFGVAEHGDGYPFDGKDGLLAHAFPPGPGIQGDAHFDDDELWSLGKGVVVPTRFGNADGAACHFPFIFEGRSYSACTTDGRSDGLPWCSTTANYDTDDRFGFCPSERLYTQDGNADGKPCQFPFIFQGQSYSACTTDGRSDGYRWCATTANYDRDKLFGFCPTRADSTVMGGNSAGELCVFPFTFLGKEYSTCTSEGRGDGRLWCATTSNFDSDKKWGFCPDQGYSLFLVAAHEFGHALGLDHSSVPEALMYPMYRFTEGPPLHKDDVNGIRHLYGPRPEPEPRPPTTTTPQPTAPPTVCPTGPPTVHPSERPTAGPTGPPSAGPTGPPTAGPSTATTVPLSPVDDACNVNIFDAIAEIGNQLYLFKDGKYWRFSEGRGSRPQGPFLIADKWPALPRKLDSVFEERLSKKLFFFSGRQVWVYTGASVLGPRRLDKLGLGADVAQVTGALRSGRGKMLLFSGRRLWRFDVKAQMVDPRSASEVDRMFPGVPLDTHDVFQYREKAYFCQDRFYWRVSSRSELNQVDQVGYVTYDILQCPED
- assaySummary: In vitro MMP-9 inhibition assay
- Type: biochemical
measurementKind: IC50 (nM)
Write the value in nM as a bare number.

Which measured IC50 value corresponds to O=C(Cn1cc(C=CC(=O)c2ccc(F)cc2)nn1)Nc1nc(-c2ccccc2)cs1 [Compound 6d] ?
90

* * *

- Tested on: normal human lung fibroblasts (Wi-38)
- assaySummary: MTT cytotoxicity assay on normal lung fibroblasts
- Assay type: cell-based
- assayConditions: MTT, 72 h; Mean ± SD, n = 3
measurementKind: Wi-38 EC100 (effective safe concentration at 100% cell viability)
I'd appreciate it if you wrote the number followed by its unit.

Which measured Wi-38 EC100 (effective safe concentration at 100% cell viability) value corresponds to O=C(Cn1cc(CO)nn1)Nc1nc(-c2ccccc2)cs1 ?
58 ± 4 nM

Which measured Wi-38 EC100 (effective safe concentration at 100% cell viability) value corresponds to O=C(C=Cc1cn(CC(=O)Nc2nc(-c3ccccc3)cs2)nn1)C=Cc1cn(CC(=O)Nc2nc(-c3ccccc3)cs2)nn1 ?
38 ± 2 nM

Which measured Wi-38 EC100 (effective safe concentration at 100% cell viability) value corresponds to O=Cc1cn(CC(=O)Nc2nc(-c3ccccc3)cs2)nn1 ?
78 ± 4 nM

Which measured Wi-38 EC100 (effective safe concentration at 100% cell viability) value corresponds to Cc1ccc(C2=NNC(c3cn(CC(=O)Nc4nc(-c5ccccc5)cs4)nn3)C2)cc1 (stereo not drawn) ?
51 ± 7 nM

Which measured Wi-38 EC100 (effective safe concentration at 100% cell viability) value corresponds to O=C(Cn1cc(C=CC(=O)c2ccc(F)cc2)nn1)Nc1nc(-c2ccccc2)cs1 ?
138 ± 9 nM

Which measured Wi-38 EC100 (effective safe concentration at 100% cell viability) value corresponds to O=C(Cn1cc(C2CC(c3ccc(F)cc3)=NN2)nn1)Nc1nc(-c2ccccc2)cs1 (stereo not drawn) ?
108 ± 15 nM

* * *

- measurementTarget: MMP-9 (Homo sapiens)
- assaySummary: In vitro MMP-9 inhibition assay
- Format: biochemical
- assayConditions: read-out: MMP-9 IC50; Mean ± SD, n = 2
measurementKind: pIC50
// pIC50 is dimensionless: -log10 of concentration (M)

Which measured pIC50 value corresponds to COc1ccc(S(=O)(=O)N(CC(=O)NO)CC(C)C)cc1 [NNGH, reference compound] ?
6.46

* * *

- Test system: normal human lung fibroblasts (Wi-38)
- assaySummary: MTT cytotoxicity assay on normal lung fibroblasts
- Format: cell-based
- assayConditions: read-out: Wi-38 IC50; MTT, 72 h; Mean ± SD, n = 3
measurementKind: pIC50
// pIC50 is dimensionless: -log10 of concentration (M)

// fetch normal human lung fibroblasts (Wi-38) pIC50 for N.N.[Cl][Pt][Cl] [Cisplatin, reference compound]
5.88
